- Test system: MDA-MB-231 breast
- test-method-notes: NCI-60 one-dose screen, 48 h
- test-settings: 10 µM unless noted
About 83,000 compounds went through this panel and 20% of them were active in at least one assay; those are over-represented in the sample as a whole. The source made the active and inactive calls. How the source made its calls: active means growth percent below 10; inactive means the rest.
Use one of these outcomes when replying: 1 = active, -1 = inactive

Exercise: Status in this test for `COc1ccc(-c2csc(NC(=O)c3cc(O)c(O)c(O)c3)n2)cc1` ?
Key: -1

Exercise: Same read-out for CC1CC(C)/C(=N/NC(N)=O)C(C(O)CC2CCC(=O)NC2=O)C1 (stereo not given) ?
Key: -1

Exercise: Again, but for `CCSc1nnc2n(Cc3ccccc3)c(=O)c3c(C)c(C(N)=O)sc3n12`
Key: -1

Exercise: What would you report for `O=C(/C(=C/c1cccc([N+](=O)[O-])c1)c1ccccc1)c1ccccc1` ?
Key: -1

Exercise: Continue with `N#Cc1cnc2cc(OC[C@H](O)CO)c(NC(=O)CC3CSSC3)cc2c1Nc1ccc(OCc2cccc(F)c2)c(Cl)c1`
Key: 1

src = PubChem BioAssay (NCI)
